Listing of entries alongside the reported selectivity ratio.
experiment: Selectivity index, ratio of IC50 for African green monkey Vero cells to MIC for Mycobacterium tuberculosis H37Rv; format: toxicity, cell-based; details: read-out: Selectivity Index
Output: the number by itself.

# count of solved cases: 3
[[record]]
compound = "Cc1nn(-c2ccc3c(c2)Nc2ccccc2S3)c2c1C(c1ccccc1Cl)NC(N)=N2 (stereo unspecified)"
measured_property = "selectivity ratio"
assay_result = 5.8

[[record]]
compound = "Cc1nn(-c2ccc3c(c2)Nc2ccccc2S3)c2c1C(c1ccccc1[N+](=O)[O-])NC(N)=N2 (stereo unspecified)"
measured_property = "selectivity ratio"
assay_result = 5.8

[[record]]
compound = "Cc1nn(-c2ccc3c(c2)Nc2ccccc2S3)c2c1C(c1ccc([N+](=O)[O-])cc1)NC(N)=N2 (stereo unspecified)"
measured_property = "selectivity ratio"
assay_result = 5.2


Turning now to a further compound:
q: Return reported selectivity ratio. Input compound: Cc1nn(-c2ccc3c(c2)Nc2ccccc2S3)c2c1C(c1ccccc1O)NC(N)=N2 (stereo unspecified)
a: 3.5

---

tested on: Mycobacterium tuberculosis; assay: Antitubercular activity against Mycobacterium tuberculosis H37Rv assessed as growth inhibition by 2-fold dilution assay; assay type: functional
Listing of entries alongside the reported MIC.

[[record]]
compound = "Cc1nn(-c2ccc3c(c2)Nc2ccccc2S3)c2c1C(c1ccccc1Cl)NC(N)=N2 (stereo unspecified)"
assay_result = "1.73 µg/mL"

[[record]]
compound = "NNC(=O)c1ccncc1"
assay_result = "0.03 µg/mL"

[[record]]
compound = "Cc1nn(-c2ccc3c(c2)Nc2ccccc2S3)c2c1C(c1ccc(Cl)cc1)NC(N)=N2 (stereo unspecified)"
assay_result = "0.02 µg/mL"

[[record]]
compound = "Cc1nn(-c2ccc3c(c2)Nc2ccccc2S3)c2c1C(c1ccc([N+](=O)[O-])cc1)NC(N)=N2 (stereo unspecified)"
assay_result = "1.73 µg/mL"

[[record]]
compound = "Cc1nn(-c2ccc3c(c2)Nc2ccccc2S3)c2c1C(c1ccccc1O)NC(N)=N2 (stereo unspecified)"
assay_result = "2.23 µg/mL"


q: Return reported MIC. Input compound: Cc1nn(-c2ccc3c(c2)Nc2ccccc2S3)c2c1C(c1ccccc1[N+](=O)[O-])NC(N)=N2 (stereo unspecified)
a: 1.73 µg/mL
